Cited source for all entries: the supplement of paper PMC11208160

- ASSAY_PROCEDURE: recombinant UMI read abundance after kanamycin selection (control-corrected) (log10(CPM+1)); higher = more efficient recombination; extreme values may be limits of the assay; sequences stand for … in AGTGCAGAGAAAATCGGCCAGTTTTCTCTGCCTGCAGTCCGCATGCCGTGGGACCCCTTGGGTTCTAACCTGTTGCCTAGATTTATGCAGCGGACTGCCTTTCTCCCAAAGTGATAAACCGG…AGGTTGGTTTCACT; site = the 11-nt donor;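 further: IS621 bridge recombinase in Escherichia coli cells against a fixed T5 target plasmid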
MEASURED_QUANTITY: recombinant UMI read abundance (log10)

Param item = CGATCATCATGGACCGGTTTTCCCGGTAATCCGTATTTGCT (site CCATTATCTAG) ; retrieve measured recombinant UMI read abundance (log10).
0

What do you have for AATTATGCATGGACCGGTTTTCCCGGTAATCCGTATTTGGA (site AATTATGCTTT) ?
0.359

What do you have for TCAGATACATGGACCGGTTTTCCCGGTAATCCGTATTTGCG (site TCAGATACTCG) ?
1.33

What do you have for TGACCGGCATGGACCGGTTTTCCCGGTAATCCGTATTTGGC (site TGTCCGGCTGC) ?
0

What do you have for GGTCCAACATGGACCGGTTTTCCCGGTAATCCGTATTTGTA (site GGACCAACTTA) ?
0.00547

What do you have for ACATCTACATGGACCGGTTTTCCCGGTAATCCGTATTTGTG (site ACATCAACTCA) ?
0.0141

What do you have for CAAGGCGCATGGACCGGTTTTCCCGGTAATCCGTATTTGGA (site CAAGGCGCTTC) ?
1.42

What do you have for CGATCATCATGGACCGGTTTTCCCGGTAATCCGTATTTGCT (site CGGTTATCTAG) ?
0

What do you have for TGATTAGCATGGACCGGTTTTCCCGGTAATCCGTATTTGGG (site TGATTAGCTCC) ?
0

What do you have for CACTCCGCATGGACCGGTTTTCCCGGTAATCCGTATTTGCC (site CACTCCGCTGG) ?
2.73

What do you have for AGCCTCGCATGGACCGGTTTTCCCGGTAATCCGTATTTGTA (site AGCCTCGCTTA) ?
0.57

What do you have for GGTGCAACATGGACCGGTTTTCCCGGTAATCCGTATTTGTA (site GGTACAACTTA) ?
0.01

What do you have for CTTCTCTCATGGACCGGTTTTCCCGGTAATCCGTATTTGTA (site CTCCTCTCTTA) ?
1.89

What do you have for GGCAATCCATGGACCGGTTTTCCCGGTAATCCGTATTTGAG (site GGCAATCCTGT) ?
0

What do you have for GGGCCAACATGGACCGGTTTTCCCGGTAATCCGTATTTGTG (site GGGCCAACTCA) ?
0

What do you have for CACTTGACATGGACCGGTTTTCCCGGTAATCCGTATTTGCT (site AACTTGACTAG) ?
0

What do you have for ACCGTGGCATGGACCGGTTTTCCCGGTAATCCGTATTTGGA (site ACCGTGGCTTC) ?
0.325

What do you have for AACAGTCCATGGACCGGTTTTCCCGGTAATCCGTATTTGAT (site AACGGTCCTAT) ?
0.0119
